Molecular target: Human CD3εδ-Fc (human) (UniProt P04234)
Sequence (chain, as listed by the source mutant, chain 1 of 2): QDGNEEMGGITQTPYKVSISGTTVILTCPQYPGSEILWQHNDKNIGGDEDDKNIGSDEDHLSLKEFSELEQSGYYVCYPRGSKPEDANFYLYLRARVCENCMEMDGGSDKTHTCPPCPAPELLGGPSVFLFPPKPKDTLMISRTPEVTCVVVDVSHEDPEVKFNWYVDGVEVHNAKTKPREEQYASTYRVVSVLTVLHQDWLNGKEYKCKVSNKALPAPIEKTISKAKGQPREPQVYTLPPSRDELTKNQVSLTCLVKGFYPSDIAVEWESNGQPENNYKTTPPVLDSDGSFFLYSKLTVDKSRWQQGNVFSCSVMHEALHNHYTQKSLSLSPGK
Sequence (P04234 22-105, stated change not applied, chain 2 of 2): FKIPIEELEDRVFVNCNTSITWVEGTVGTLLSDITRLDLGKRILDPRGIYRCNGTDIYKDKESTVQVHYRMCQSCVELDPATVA
Experiment: KD of scFv-Fc or IgG on human CD3εδ-Fc; instrument not given
readout_name: Kd (nM)
Answer format: numeric, nM implied, no suffix.

Inquiry: Query Kd for ADI-42596 (antibody, V domains shown, also called Ab2) VH: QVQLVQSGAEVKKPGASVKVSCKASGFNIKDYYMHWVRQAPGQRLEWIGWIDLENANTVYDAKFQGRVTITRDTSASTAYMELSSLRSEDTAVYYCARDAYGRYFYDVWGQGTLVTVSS VL: DIVMTQSPDSLAVSLGERATINCKSSQSLLNARTRKNYLAWYQQKPGQPPKLLIYWASTRESGVPDRFSGSGSGTDFTLTISSLQAEDVAVYYCKQSYFRRTFGGGTKVEIK
Reply text: 0.16

Inquiry: Query Kd for ADI-45973 (antibody, V domains shown, also called Ab9) VH: QVQLVQSEAEVKKPGASVKVSCKASGFNIKDYYMHWVRQAPGQRLEWIGWIDLENANTVYDAKFQGRVTITRDTSASTAYMELSSLRSEDTAVYYCARDAYGRYFYDVWGQGTLVTVSS VL: DIVMTQSPDSLAVSLGERATINCKSSQSLLNARTGKNYLAWYQQKPGQPPKLLIYWASTRESGVPDRFSGSGSGTDFTLTISSLQAEDVAVYYCKQSYFRRTFGGGTKVEIK
Reply text: 0.16

Inquiry: Query Kd for ADI-46375 (antibody, V domains shown, also called Ab38) VH: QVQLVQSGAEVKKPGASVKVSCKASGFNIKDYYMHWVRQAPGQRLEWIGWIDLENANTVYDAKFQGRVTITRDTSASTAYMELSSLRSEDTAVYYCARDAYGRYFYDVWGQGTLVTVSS VL: DIVMTQSPDSLAVSLGERATINCKSSQSLLNARTRKNYLAWYQQKPGQPPKLLIYWASTRESGVPDRFSGSGSGTDFTLTISSLQAEDVAVYYCTQSYFRRTFGGGTKVEIK
Reply text: 0.86

Inquiry: Query Kd for ADI-45978 (antibody, V domains shown, also called Ab15) VH: QVQLVQSGAEVKKPGASVKVSCKASGFNIKDYYMHWVRQAPGQRLEWLGWIDLENANTVYDAKFQGRVTITRDTSASTAYMELSSLRSEDTAVYYCARDAYGRYFYDVWGQGTLVTVSS VL: DIVMTQSPDSLAVSLGERATINCKSSQSLLNARTGKNYLAWYQQKPGQPPKLLIYWASARESGVPDRFSGSGSGTDFTLTISSLQAEDVAVYYCTQSYFRRTFGGGTKVEIK
Reply text: 0.074

Below: the item to evaluate.
Inquiry: Query Kd for ADI-45966 (antibody, V domains shown, also called Ab29) VH: QVQLVQSGAEVKKPGASVKVSCKASGFNIKDYYMHWVRQAPGQRLEWIGWIDLENANTVYDAKFQGRVAITRDTSASTAYMELSSLRSEDTAVYYCARDAYGRYFYDVWGQGTLVTVSS VL: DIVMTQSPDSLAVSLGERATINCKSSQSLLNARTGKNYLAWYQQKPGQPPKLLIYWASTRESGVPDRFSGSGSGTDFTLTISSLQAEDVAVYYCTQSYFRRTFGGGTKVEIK
Reply text: 0.061
